assay-system: Rhesus PDE2A3 (Macaca mulatta, UniProt B3VTJ2)
Construct: made in house; host or cells: AD293 cells, transient transfection, pcDNA3.3-TOPO; lysate supernatant used as enzyme
Sequence (B3VTJ2 1-941): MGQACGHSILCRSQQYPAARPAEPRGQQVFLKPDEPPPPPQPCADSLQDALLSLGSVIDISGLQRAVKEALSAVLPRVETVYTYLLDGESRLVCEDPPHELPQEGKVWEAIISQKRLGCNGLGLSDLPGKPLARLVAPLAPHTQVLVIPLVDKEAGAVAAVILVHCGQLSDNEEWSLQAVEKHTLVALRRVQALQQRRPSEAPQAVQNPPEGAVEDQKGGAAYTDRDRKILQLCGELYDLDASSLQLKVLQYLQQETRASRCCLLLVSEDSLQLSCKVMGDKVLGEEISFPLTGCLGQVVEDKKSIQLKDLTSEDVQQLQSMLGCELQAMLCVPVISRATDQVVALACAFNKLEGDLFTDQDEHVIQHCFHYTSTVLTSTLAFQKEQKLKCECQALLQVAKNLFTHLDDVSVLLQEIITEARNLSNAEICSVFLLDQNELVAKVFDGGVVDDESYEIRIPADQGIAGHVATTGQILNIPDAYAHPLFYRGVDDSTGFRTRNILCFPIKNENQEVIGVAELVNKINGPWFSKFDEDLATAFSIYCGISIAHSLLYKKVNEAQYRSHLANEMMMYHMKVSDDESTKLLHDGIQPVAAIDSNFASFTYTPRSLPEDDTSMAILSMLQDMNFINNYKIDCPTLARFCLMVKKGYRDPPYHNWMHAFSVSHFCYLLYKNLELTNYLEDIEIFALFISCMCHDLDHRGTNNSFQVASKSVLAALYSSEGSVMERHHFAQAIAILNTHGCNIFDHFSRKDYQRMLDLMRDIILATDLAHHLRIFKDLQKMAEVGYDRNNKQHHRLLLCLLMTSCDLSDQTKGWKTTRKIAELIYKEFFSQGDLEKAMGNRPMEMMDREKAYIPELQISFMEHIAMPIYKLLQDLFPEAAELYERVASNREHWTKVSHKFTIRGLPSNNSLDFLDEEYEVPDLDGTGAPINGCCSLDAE
assay-remarks: PDE2 fluorescence polarization (IMAP FP) inhibition assay, rhesus enzyme
Format: biochemical, rhesus macaque
test-parameters: Lab B; read-out: Rhesus PDE2 Ki (nM) Lab B
Entries annotated with measured Ki
Express your answer in nM, writing the number without its unit.

Some solved entries appear below for comparison.
COC(=O)c1ccc(C(C)n2cc(-c3cc(=O)[nH]c(C)n3)cn2)cc1 (stereo not drawn) ... 3830
Cc1nc(-n2cc(C(C)c3ccc(C4CCC4)cc3)cn2)cc(=O)[nH]1 (stereo not drawn) ... 303
Cc1nc(-c2cnn(C(C)c3ccc(S(F)(F)(F)(F)F)cc3)c2)cc(=O)[nH]1 (single isomer, unassigned) [Example 63] ... 99.3
Cc1nc(-c2ccn(C(C)c3ccccc3)n2)cc(=O)[nH]1 (stereo not drawn) ... 18500
Cc1nc(-n2cc(C(C)c3ccc(C4(C)CC4)cc3)cn2)cc(=O)[nH]1 (stereo not drawn) ... 211
Cc1nc(-c2cnn(C(C)c3ccc(OC(F)(F)F)cc3)c2)cc(=O)[nH]1 (single isomer, unassigned) [Example 127] ... 130
CNC(c1ccc(C(F)(F)F)cc1)c1cnn(-c2cc(=O)[nH]c(C)n2)c1 (stereo not drawn) ... 488
Cc1nc(-n2ccc([C@H](C)c3ccc(C(F)(F)F)cc3)n2)cc(=O)[nH]1 (single isomer, unassigned) [Example 5] ... 285

Looking up Cc1nc(-n2cc([C@]3(c4ccc(C(F)(F)F)cc4)CCCO3)cn2)cc(=O)[nH]1 (single isomer, unassigned) [Example 21] , I found its Ki recorded as 213

# compound COc1ccc(Cc2nc(-n3ccc(C(C)c4ccc(C(F)(F)F)cc4)n3)cc(=O)[nH]2)cc1OC (single isomer, unassigned) [Example 134] ; its Ki = 110

The values you see were collected from patent US10287269B2.
